- System: A498 renal
- test protocol: NCI tumour cell line growth inhibition, 48 h
parameter measured: GI50

COC(=O)C(Br)(C(=O)OC)C(Br)C(Br)C(Br)c1ccccc1 (centres undefined); 15.5 µM
CC12OC(C(=O)C13CCC3)C1C(=O)c3c(O)ccc(O)c3C(=O)C12 (centres undefined); 14.5 µM
COc1ccccc1CNC(=O)/C=C/c1ccc(O)c(O)c1; > 100 µM
C=CC(=O)N1CCC(CNc2ncnc(N)c2-c2ccc(Oc3ccccc3)cc2)CC1; 10.7 µM
Cc1cc(O)cc(-c2nn(C)cc2-c2cc(N3CCOCC3)nc(-c3cccnc3)n2)c1; 1.06 µM

Next item in the queue.
Incoming: Query (compound): `Cc1ccc(Nn2c(SCC(=O)Nc3nc(-c4ccccc4)cs3)nc(C)c2C)cc1` ; field requested: GI50
Outgoing: 17.4 µM
